- SYSTEM NAME: T1, ActRIIB-A1 (SEQ ID NO: 120) chimera-Fc protein (Homo sapiens (Human), UniProt Q13705 28-134)
- T1 construct: Tested as chimera-Fc protein; not shown: linker (if any) and Fc domain
- T1 sequence: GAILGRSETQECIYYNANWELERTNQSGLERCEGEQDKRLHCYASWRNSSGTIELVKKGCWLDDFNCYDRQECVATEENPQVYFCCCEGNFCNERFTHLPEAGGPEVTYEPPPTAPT
- ASSAY OVERVIEW: SPR (Biacore 8K), Fc protein captured on anti-human IgG, ligand injected
pKd: −log10 of the molar value.
MEASUREMENT TYPE: pKd

BMP-9 (ligand, UniProt Q9UK05 320-429, looked up, also called bone morphogenetic protein 9) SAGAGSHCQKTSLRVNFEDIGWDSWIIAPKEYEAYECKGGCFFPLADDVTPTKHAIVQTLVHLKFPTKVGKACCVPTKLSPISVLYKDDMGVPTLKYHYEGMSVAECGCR | 10.82

P. Activin A (ligand, UniProt P08476 311-426, looked up) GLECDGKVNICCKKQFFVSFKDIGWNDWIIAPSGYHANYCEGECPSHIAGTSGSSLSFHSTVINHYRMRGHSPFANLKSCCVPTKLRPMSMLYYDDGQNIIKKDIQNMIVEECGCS
Q. BMP-10 (ligand, UniProt O95393 317-424, looked up) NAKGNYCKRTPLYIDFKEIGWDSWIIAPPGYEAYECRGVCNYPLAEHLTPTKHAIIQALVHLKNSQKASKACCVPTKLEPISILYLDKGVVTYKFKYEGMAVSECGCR
Inquiry: # argmax over pKd for candidates P and Q Answer by quoting the chosen item's label.
Reply text: Q
(Q: 10.76, P: 10.35)
